protocol details: Binding affinity to amyloid beta (1 to 40) after 3 hrs using [125I]IMSB by gamma counter method
attribute measured: pKi
Just so you know, pKi here is -log10 of the concentration in molar units; reply with that number alone.

// query Give the reported value of pKi for this record: COc1cc(/C=C/C(O)=C/C(=O)/C=C/c2ccc(OCCC[18F])c(OC)c2)ccc1O
// result 10.15
